- System: OVCAR-4 ovarian
- ASSAY_SUMMARY: NCI tumour cell line growth inhibition, 48 h
MEASUREMENT_LABEL: GI50

Worked cases, answers included:
[
  {
    "COMPOUND": "CCCN1CCCC(c2ccc(Nc3nc(Nc4cc(F)ccc4C(N)=O)c4cc[nH]c4n3)c(OC)c2)C1 (stereo not given)",
    "TESTED_ON": "OVCAR-4 ovarian",
    "REPORTED_VALUE": "3.03 µM"
  },
  {
    "COMPOUND": "COc1cc(/C=C2\\C(=O)Nc3ccc(O)cc32)cc(OC)c1OC",
    "TESTED_ON": "OVCAR-4 ovarian",
    "REPORTED_VALUE": "11.1 µM"
  },
  {
    "COMPOUND": "Fc1cnccc1-c1nc2ccc3[nH]ncc3c2c2c1CCCC2",
    "TESTED_ON": "OVCAR-4 ovarian",
    "REPORTED_VALUE": "3.5 µM"
  },
  {
    "COMPOUND": "COc1cc(C(=O)N[C@@H]2CCCN(C)C2)ccc1Nc1ncc2c(n1)N(C1CCCC1)CC(C)(C)C(=O)N2C",
    "TESTED_ON": "OVCAR-4 ovarian",
    "REPORTED_VALUE": "10.8 µM"
  },
  {
    "COMPOUND": "CC(C)OC(=O)OCOP(=O)(OCOC(=O)OC(C)C)C1CCCN(O)C1=O (stereo not given)",
    "TESTED_ON": "OVCAR-4 ovarian",
    "REPORTED_VALUE": "2.32 µM"
  },
  {
    "COMPOUND": "CC(C)c1c(C(=O)Nc2ccccc2)c(-c2ccccc2)c(-c2ccc(F)cc2)n1CC[C@@H](O)C[C@@H](O)CC(=O)O",
    "TESTED_ON": "OVCAR-4 ovarian",
    "REPORTED_VALUE": "27.8 µM"
  },
  {
    "COMPOUND": "COc1ccc2c(c1)OCC1c3cc(OC)ccc3OC21 (stereo not given)",
    "TESTED_ON": "OVCAR-4 ovarian",
    "REPORTED_VALUE": "39.2 µM"
  },
  {
    "COMPOUND": "N=C(N)c1ccc(-c2ccc(-c3cccs3)s2)cc1F",
    "TESTED_ON": "OVCAR-4 ovarian",
    "REPORTED_VALUE": "1.54 µM"
  }
]

[Q] Specify measured GI50 for CC[C@@]12CC(C(=O)OC)=C3Nc4ccccc4[C@@]34CCN(C[C@H]3O[C@H]31)[C@@H]24 .
[A] 82.5 µM

[Q] Specify measured GI50 for CC/C(=C\c1ccc(N(C)C)cc1)c1ccncc1 .
[A] 8.67 µM

----------
- System: RPMI-8226 leukemia
- ASSAY_SUMMARY: NCI tumour cell line growth inhibition, 48 h
MEASUREMENT_LABEL: TGI

Worked cases, answers included:
[
  {
    "COMPOUND": "CCCCCCCC(=O)N1C2CC3CCC2(CS1(=O)=O)C3(C)C (stereo not given)",
    "TGI": "41.5 µM"
  },
  {
    "COMPOUND": "COc1ccc(Cc2nc3cc(C(F)(F)F)ccc3n2C[C@@H]2CCCN3CCCCC23)cc1 (stereo not given in full)",
    "TGI": "94.8 µM"
  },
  {
    "COMPOUND": "CC(=O)Nc1ccc(/C=C/C(=O)c2sc(-n3nc(-c4ccccc4)cc3-c3ccccc3)nc2C)cc1",
    "TGI": "> 100 µM"
  },
  {
    "COMPOUND": "COc1cc2nc(NC3CCC3)nc(NC3CCN(C(C)C)CC3)c2cc1OC",
    "TGI": "4.06 µM"
  },
  {
    "COMPOUND": "O=C1N(c2ccccc2)C2(O)C(=O)c3ccccc3C2(O)N1c1ccccc1 (stereo not given)",
    "TGI": "> 100 µM"
  }
]

For the next question, use this compound.
[Q] Specify measured TGI for COC(=O)[C@@H](N1C(=O)c2ccccc2C1=O)C1(C)CC(Cl)=NO1 (stereo not given in full) .
[A] > 100 µM
